system: Proteinase-activated receptor 2 (Homo sapiens) (UniProt P55085)
Sequence (P55085 whole entry): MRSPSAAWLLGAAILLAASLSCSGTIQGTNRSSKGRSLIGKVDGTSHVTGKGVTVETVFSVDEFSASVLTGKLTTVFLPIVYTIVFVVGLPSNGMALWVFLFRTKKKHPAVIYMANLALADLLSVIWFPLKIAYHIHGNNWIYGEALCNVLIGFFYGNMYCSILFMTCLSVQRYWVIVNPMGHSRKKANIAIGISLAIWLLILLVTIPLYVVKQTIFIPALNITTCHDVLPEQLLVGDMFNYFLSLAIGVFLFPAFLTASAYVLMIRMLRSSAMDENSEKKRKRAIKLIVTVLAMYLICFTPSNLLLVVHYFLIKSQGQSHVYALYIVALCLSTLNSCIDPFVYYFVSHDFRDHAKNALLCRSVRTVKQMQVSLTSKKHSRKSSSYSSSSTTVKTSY
assay: Agonist activity at PAR2 in human HT-29 cells assessed as induction of ca2+ release at 10 uM after 1 hr by FLIPR assay relative to 2f-LIGRLO-NH2
Format: cell-based
Listed next: entries and their corresponding Activity.
Number only, in %; omit the unit.

Example entries begin here.
INPUT: Give the measured Activity of CC[C@H](C)[C@H](NC(=O)[C@H](CC1CCCCC1)NC(=O)c1ccno1)C(=O)NCc1cccc2c1OCO2 .
OUTPUT: 46

INPUT: Which Activity value belongs to CC[C@H](C)[C@H](NC(=O)[C@H](CC1CCCCC1)NC(=O)c1ccno1)C(=O)NCc1ccccc1OC(C)C ?
OUTPUT: 38

INPUT: Given the compound CC[C@H](C)[C@H](NC(=O)[C@H](CC1CCCCC1)NC(=O)c1ccno1)C(=O)N(C)Cc1ccccc1OC , what is its reported Activity?
OUTPUT: 20

// switching to the query compound
INPUT: What value of Activity has been recorded for this entry: CC[C@H](C)[C@H](NC(=O)[C@H](CC1CCCCC1)NC(=O)c1ccno1)C(=O)NC1C2CC3CC(C2)CC1C3 (some centres undefined)
OUTPUT: 26

* * *

assay: Tmax in Wistar rat at 10 mg/kg, po
Assay type: ADME, organism-based
experimental-context: in vivo
value-kind: Tmax
Number first, unit second: that is the form wanted.

INPUT: Any idea what its Tmax is? The compound is CC[C@H](C)[C@H](NC(=O)[C@H](CC1CCCCC1)NC(=O)c1ccno1)C(=O)NCc1ccccc1OC
OUTPUT: 2.63 h

Pending compound:
INPUT: Name the reported Tmax value associated with the compound CC[C@H](C)[C@H](NC(=O)[C@H](CC1CCCCC1)NC(=O)c1ccno1)C(=O)N1CCC2(C=Cc3ccccc32)CC1
OUTPUT: 2.78 h

* * *

system: Proteinase-activated receptor 2 (Homo sapiens)
assay: Agonist activity at PAR2 in human HT-29 cells assessed as induction of ca2+ release at 10 uM after 1 hr by FLIPR assay relative to 2f-LIGRLO-NH2
Format: cell-based
Activity of 40% or higher: fulfilled. Under 40%: not fulfilled.

INPUT: Is the recorded value of Activity equal to or greater than 40% for this compound? CC[C@H](C)[C@H](NC(=O)[C@H](CC1CCCCC1)NC(=O)c1ccno1)C(=O)NCc1cccc(OC)c1
OUTPUT: not fulfilled

INPUT: Is Activity for CC[C@H](C)[C@H](NC(=O)[C@H](CC1CCCCC1)NC(=O)c1ccno1)C(=O)NCc1ccc(F)cc1 at or above 40%?
OUTPUT: not fulfilled

INPUT: Evaluate CC[C@H](C)[C@H](NC(=O)[C@H](CC1CCCCC1)NC(=O)c1ccno1)C(=O)NCc1ccccc1[N+](=O)[O-] : Activity at minimum 40%?
OUTPUT: fulfilled

Now take the following compound into account.
INPUT: API: above_or_equal(metric=Activity, cutoff=40%) for item CC[C@H](C)[C@H](NC(=O)[C@H](CC1CCCCC1)NC(=O)c1ccno1)C(=O)NCc1ccccc1Cl
OUTPUT: fulfilled

* * *

assay: Cmax in Wistar rat at 10 mg/kg, po
Assay type: ADME, organism-based
Set-up: dose 10 mg/kg, route oral
experimental-context: in vivo
Measured Cmax by item
Quick note: unit goes after the number.

INPUT: Which Cmax reading was recorded for the compound CC[C@H](C)[C@H](NC(=O)[C@H](CC1CCCCC1)NC(=O)c1ccno1)C(=O)NCc1ccccc1OC ?
OUTPUT: 510 nM

New cases:
INPUT: Please look up its Cmax: CC[C@H](C)[C@H](NC(=O)[C@H](CC1CCCCC1)NC(=O)c1ccno1)C(=O)N1CCC2(C=Cc3ccccc32)CC1
OUTPUT: 1970 nM

Data credit: ChEMBL document CHEMBL3751717
